Just for reference, the CheMixHub drug solubility set is where these values come from.

Assay: xn = mol fraction of the nth substance listed, in the solute-free solvent
Settings: 303.15 K; x2 = 0.1
Record Condition met whenever solubility (g/100 g solution) is at 1 or higher; record Condition not met when lower.

compound	category label
O=C1CCc2ccc(OCCCCN3CCN(c4cccc(Cl)c4Cl)CC3)cc2N1 + CCC(C)=O + CC(C)=O	Condition met

Input line: Has O=C(O)c1ccc(C(=O)O)o1 + O + COCCOCCOC a recorded solubility (g/100 g solution) greater than or equal to 1?
Output line: Condition met

Input line: Has COC1=CC(=O)CC(C)C12Oc1c(Cl)c(OC)cc(OC)c1C2=O (stereo unspecified) + CC(=O)CC(C)C + CC(C)O a recorded solubility (g/100 g solution) greater than or equal to 1?
Output line: Condition not met

Input line: Has O=C(O)c1ccc(C(=O)O)o1 + O + COCCOC a recorded solubility (g/100 g solution) greater than or equal to 1?
Output line: Condition met

Input line: Has O=C(O)C1CSCN1 (stereo unspecified) + O + CC#N a recorded solubility (g/100 g solution) greater than or equal to 1?
Output line: Condition not met

Input line: Has O=C1CCc2ccc(OCCCCN3CCN(c4cccc(Cl)c4Cl)CC3)cc2N1 + CCC(C)=O + CCCO a recorded solubility (g/100 g solution) greater than or equal to 1?
Output line: Condition met

###

Assay: xn = mol fraction of the nth substance listed, in the solute-free solvent
Settings: 288.15 K; x2 = 0.6
value type: solubility (g/100 g solution)

compound	solubility (g/100 g solution)
CCCCOc1ccc(C(=O)CCN2CCCCC2)cc1.Cl + CCO + CCCCCC	20.6
CC(=O)OC(c1ccccc1)C(Cl)(Cl)Cl (configuration not stated) + CC(C)O + O	2.16
O=C1CCc2ccc(OCCCCN3CCN(c4cccc(Cl)c4Cl)CC3)cc2N1 + CCC(C)=O + CCOC(C)=O	1.32
CC(=O)OC(c1ccccc1)C(Cl)(Cl)Cl (configuration not stated) + CCO + O	1.11
COC1=CC(=O)CC(C)C12Oc1c(Cl)c(OC)cc(OC)c1C2=O (configuration not stated) + CC(C)=O + CC(C)O	1.76
O=C1CCc2ccc(OCCCCN3CCN(c4cccc(Cl)c4Cl)CC3)cc2N1 + CCC(C)=O + CCCO	2.67

Input line: Dear colleague, please send me the reported solubility (g/100 g solution) for O=C1CCc2ccc(OCCCCN3CCN(c4cccc(Cl)c4Cl)CC3)cc2N1 + CCC(C)=O + CC(C)=O when you can.
Output line: 1.57

###

Assay: xn = mol fraction of the nth substance listed, in the solute-free solvent
Conditions: 293.15 K; x2 = 0.9
value type: solubility (g/100 g solution)
Returns: the value as a bare number; no unit string appended.

Input line: Dear colleague, please send me the reported solubility (g/100 g solution) for O=C1CCc2ccc(OCCCCN3CCN(c4cccc(Cl)c4Cl)CC3)cc2N1 + CCC(C)=O + CCOC(C)=O when you can.
Output line: 1.98

Input line: Dear colleague, please send me the reported solubility (g/100 g solution) for CCCCOc1ccc(C(=O)CCN2CCCCC2)cc1.Cl + CCO + CCCCCC when you can.
Output line: 35.8

Input line: Dear colleague, please send me the reported solubility (g/100 g solution) for O=C(O)c1ccc(C(=O)O)o1 + C1CCOC1 + O when you can.
Output line: 3.55

Input line: Dear colleague, please send me the reported solubility (g/100 g solution) for CC(=O)OC(c1ccccc1)C(Cl)(Cl)Cl (centres undefined) + CC(C)O + O when you can.
Output line: 3.67

###

The entries below are paired with their reported solubility (g/100 g solution).
Assay: xn = mol fraction of the nth substance listed, in the solute-free solvent
Settings: 313.15 K; x2 = 0.6
Returns: the value as a bare number; no unit string appended.

Example molecules with recorded solubility (g/100 g solution):
molecule	recorded number
CCCCOc1ccc(C(=O)CCN2CCCCC2)cc1.Cl + CCO + CCOC(C)=O	35.2
CCCCOc1ccc(C(=O)CCN2CCCCC2)cc1.Cl + CCO + O	54.7
CC(=O)OC(c1ccccc1)C(Cl)(Cl)Cl (stereo not drawn) + CC(C)O + O	7.88
O=C(O)c1ccc(C(=O)O)o1 + C1CCOC1 + O	7.81
CC(=O)OC(c1ccccc1)C(Cl)(Cl)Cl (stereo not drawn) + CCO + O	5.43
O=C(O)c1ccc(C(=O)O)o1 + O + COCCOCCOC	6.69
O=C(O)C1CSCN1 (stereo not drawn) + O + CC#N	0.679

Proceed to the following item.
Input line: Dear colleague, please send me the reported solubility (g/100 g solution) for COC1=CC(=O)CC(C)C12Oc1c(Cl)c(OC)cc(OC)c1C2=O (stereo not drawn) + CC(=O)CC(C)C + CC(C)O when you can.
Output line: 1.33

###

The entries below are paired with their reported solubility (g/100 g solution).
Experiment: xn = mol fraction of the nth substance listed, in the solute-free solvent
Settings: 323.15 K; x2 = 0.6
Returns: the value as a bare number; no unit string appended.

Input line: Dear colleague, please send me the reported solubility (g/100 g solution) for CC(=O)OC(c1ccccc1)C(Cl)(Cl)Cl (centres undefined) + CCO + O when you can.
Output line: 9.98

Input line: Dear colleague, please send me the reported solubility (g/100 g solution) for CC(=O)OC(c1ccccc1)C(Cl)(Cl)Cl (centres undefined) + CC(=O)O + O when you can.
Output line: 10.1

Input line: Dear colleague, please send me the reported solubility (g/100 g solution) for CC(=O)OC(c1ccccc1)C(Cl)(Cl)Cl (centres undefined) + CC(C)O + O when you can.
Output line: 14.7

Input line: Dear colleague, please send me the reported solubility (g/100 g solution) for O=C(O)c1ccc(C(=O)O)o1 + C1CCOC1 + O when you can.
Output line: 8.54

###

The entries below are paired with their reported solubility (g/100 g solution).
Assay: xn = mol fraction of the nth substance listed, in the solute-free solvent
Conditions: 288.15 K; x2 = 0.7
Returns: the value as a bare number; no unit string appended.

compound	solubility (g/100 g solution)
CC(=O)OC(c1ccccc1)C(Cl)(Cl)Cl (stereo not drawn) + CC(C)O + O	2.5
CC(=O)OC(c1ccccc1)C(Cl)(Cl)Cl (stereo not drawn) + CCO + O	1.91

Proceed to the following item.
Input line: Dear colleague, please send me the reported solubility (g/100 g solution) for CCCCOc1ccc(C(=O)CCN2CCCCC2)cc1.Cl + CO + C1CCOC1 when you can.
Output line: 36.5

###

Test: xn = mol fraction of the nth substance listed, in the solute-free solvent
Conditions: 298.15 K; x2 = 0.8
value type: solubility (g/100 g solution)
Returns: the value as a bare number; no unit string appended.

Example compounds with recorded solubility (g/100 g solution):
compound	recorded number
CCCCOc1ccc(C(=O)CCN2CCCCC2)cc1.Cl + CCO + CCCCCC	34.1
CC(=O)OC(c1ccccc1)C(Cl)(Cl)Cl (stereo not drawn) + CC(C)O + O	4.57
O=C1CCc2ccc(OCCCCN3CCN(c4cccc(Cl)c4Cl)CC3)cc2N1 + CCC(C)=O + CCCO	3.48
COC1=CC(=O)CC(C)C12Oc1c(Cl)c(OC)cc(OC)c1C2=O (stereo not drawn) + CC(=O)CC(C)C + CC(C)O	0.973
O=C(O)c1ccc(C(=O)O)o1 + C1CCOC1 + O	5.3

Input line: Dear colleague, please send me the reported solubility (g/100 g solution) for O=C1CCc2ccc(OCCCCN3CCN(c4cccc(Cl)c4Cl)CC3)cc2N1 + CCC(C)=O + CC(C)=O when you can.
Output line: 2.49

Input line: Dear colleague, please send me the reported solubility (g/100 g solution) for CC(=O)OC(c1ccccc1)C(Cl)(Cl)Cl (stereo not drawn) + CCO + O when you can.
Output line: 4.06

Input line: Dear colleague, please send me the reported solubility (g/100 g solution) for CCCCOc1ccc(C(=O)CCN2CCCCC2)cc1.Cl + CO + C1CCOC1 when you can.
Output line: 48.7

Input line: Dear colleague, please send me the reported solubility (g/100 g solution) for O=C1CCc2ccc(OCCCCN3CCN(c4cccc(Cl)c4Cl)CC3)cc2N1 + CCC(C)=O + CCOC(C)=O when you can.
Output line: 2.18

Input line: Dear colleague, please send me the reported solubility (g/100 g solution) for CCCCOc1ccc(C(=O)CCN2CCCCC2)cc1.Cl + CCO + O when you can.
Output line: 44.1

###

Assay: xn = mol fraction of the nth substance listed, in the solute-free solvent
Details: 318.15 K; x2 = 0.2
Record yes whenever solubility (g/100 g solution) is at 5 or higher; record no when lower.

Here are 5 molecules together with their reported answers.
molecule	category label
CCCCOc1ccc(C(=O)CCN2CCCCC2)cc1.Cl + CO + C1CCOC1	yes
COC1=CC(=O)CC(C)C12Oc1c(Cl)c(OC)cc(OC)c1C2=O (stereo not given) + CC(C)=O + CC(C)O	no
O=C(O)c1ccc(C(=O)O)o1 + C1COCCO1 + O	no
CCCCOc1ccc(C(=O)CCN2CCCCC2)cc1.Cl + CCO + CCOC(C)=O	yes
O=C1CCc2ccc(OCCCCN3CCN(c4cccc(Cl)c4Cl)CC3)cc2N1 + CCC(C)=O + CC(C)=O	no

Input line: Has O=C1CCc2ccc(OCCCCN3CCN(c4cccc(Cl)c4Cl)CC3)cc2N1 + CCC(C)=O + CCCO a recorded solubility (g/100 g solution) greater than or equal to 5?
Output line: no

Input line: Has O=C(O)c1ccc(C(=O)O)o1 + O + COCCOC a recorded solubility (g/100 g solution) greater than or equal to 5?
Output line: no

Input line: Has CCCCOc1ccc(C(=O)CCN2CCCCC2)cc1.Cl + CCO + CCCCCC a recorded solubility (g/100 g solution) greater than or equal to 5?
Output line: yes

Input line: Has COC1=CC(=O)CC(C)C12Oc1c(Cl)c(OC)cc(OC)c1C2=O (stereo not given) + CCC(C)=O + CC(C)O a recorded solubility (g/100 g solution) greater than or equal to 5?
Output line: no
